Target: HLA B*0801 (Homo sapiens, UniProt P01889, A93T/A95T/D138N/E176V/E187T/K202T/Q94N/R180D/S35A/V36M/Y33D/Y91F)
Experiment: biochemical
Type: binding
# note: exactly 0.3 is not below, so it is N; use Y for Normalized average relative binding affinity(ARB) strictly under it

Study these solved cases before continuing.
MONOMER SEQUENCE | LABEL CLASS
XXXXXXXEX [3064.0144] | Y
XXXXXXEXX [3064.0124] | N
XXXXXXAXX [3064.0121] | N
XXXXIXXXX [3064.0088] | Y
XXXXFXXXX [3064.0085] | Y
XXXXDXXXX [3064.0083] | Y
XXXXXXWXX [3064.0139] | N
XXXIXXXXX [3064.0068] | N

Q: Record XXXXXYXXX [3064.0120] : is its Normalized average relative binding affinity(ARB) strictly below 0.3?
A: Y

Q: Param item: XXXXXXRXX [3064.0135]
A: N

Q: Param item: XXXXXXYXX [3064.0140]
A: Y

Q: Param item: XXXVXXXXX [3064.0078]
A: N

Q: Param item: XXXXXIXXX [3064.0108]
A: Y

Q: Param item: XXXXXXQXX [3064.0134]
A: N

Q: Param item: XXXXXXXTX [3064.0157]
A: Y

Q: Param item: XXXXXCXXX [3064.0102]
A: Y

Q: Param item: XXXXXVXXX [3064.0118]
A: Y

---

Biological target: HLA B*0801 (Homo sapiens, UniProt P01889, A93T/A95T/D138N/E176V/E187T/K202T/Q94N/R180D/S35A/V36M/Y33D/Y91F)
Assay: biochemical
Where a SMILES comes first, the peptide text is derived from it.
OBSERVATION TYPE: pIC50
Please express pIC50 as -log10 of the molar concentration.

Example cases with answers are listed next.
COMPOUND | pIC50
CC[C@H](C)[C@H](NC(=O)[C@H](CCCNC(=N)N)NC(=O)[C@@H](N)CO)C(=O)N[C@@H](CO)C(=O)N[C@@H](CCCNC(=N)N)C(=O)N[C@@H](Cc1ccccc1)C(=O)N[C@@H](C)C(=O)N[C@@H](CC(N)=O)C(=O)N[C@@H](CC(C)C)C(=O)O [3102.0622] (H-SRISRFANL-OH) | 7.70
CC[C@H](C)[C@H](NC(=O)[C@H](CCC(=O)O)NC(=O)[C@H](CCCNC(=N)N)NC(=O)[C@H](CC(C)C)NC(=O)[C@@H](N)CO)C(=O)N[C@@H](CO)C(=O)N[C@@H](CC(N)=O)C(=O)N[C@H](C(=O)N[C@H](C(=O)O)C(C)C)[C@@H](C)CC [3102.0645] (H-SLREISNIV-OH) | 8.00

Q: Name the recorded pIC50 for CSCC[C@H](NC(=O)[C@H](CC(C)C)NC(=O)[C@@H](N)CCSC)C(=O)N[C@@H](CC(N)=O)C(=O)N[C@@H](Cc1c[nH]cn1)C(=O)N[C@H](C(=O)N[C@@H](C)C(=O)N[C@@H](CC(N)=O)C(=O)N[C@@H](Cc1ccccc1)C(=O)O)C(C)C [3102.0720] (H-MLMNHVANF-OH) .
A: 8.48

---

Listed here: items and their measured pIC50.
Biological target: HLA A*3201 (Homo sapiens, UniProt P04439, A270S/D101S/D185E/E176V/E277Q/F133L/G103R/G107R/G231S/H175R/I121M/I218V/I322F/K168Q/L105A/L300P/L318F/M331R/P208A/P217A/Q94H/R106L/R138Q/S129P/T104I/T323A/T345S/V100E/V321M/V358M)
Test: biochemical
Type: binding
Where a SMILES comes first, the peptide text is derived from it.
Please express pIC50 as -log10 of the molar concentration.

COMPOUND | pIC50
CC(C)C[C@H](N)C(=O)N[C@H](C(=O)NCC(=O)N[C@H](C(=O)N[C@@H](Cc1ccccc1)C(=O)N[C@H](C(=O)N[C@H](C(=O)N[C@@H](C)C(=O)N[C@@H](Cc1ccccc1)C(=O)O)[C@@H](C)O)C(C)C)[C@@H](C)O)[C@@H](C)O [3102.0515] (H-LTGTFVTAF-OH) | 8.06
CC[C@H](C)[C@H](NC(=O)[C@H](CO)NC(=O)[C@@H](NC(=O)[C@H](CCC(=O)O)NC(=O)[C@H](CC(N)=O)NC(=O)[C@H](Cc1ccc(O)cc1)NC(=O)[C@@H](NC(=O)[C@@H](NC(=O)[C@@H](N)CCCNC(=N)N)[C@@H](C)O)[C@@H](C)CC)[C@@H](C)O)C(=O)O [3102.0366] (H-RTIYNETSI-OH) | 9.00
CC[C@H](C)[C@H](NC(=O)[C@@H](NC(=O)[C@@H](N)CCCCN)[C@@H](C)O)C(=O)N[C@@H](CC(N)=O)C(=O)N[C@@H](C)C(=O)N[C@@H](CC(C)C)C(=O)N[C@H](C(=O)N[C@@H](Cc1ccc(O)cc1)C(=O)N[C@@H](Cc1ccccc1)C(=O)O)C(C)C [3102.0359] (H-KTINALVYF-OH) | 8.06
CC[C@H](C)[C@H](NC(=O)[C@@H](NC(=O)[C@H](CC(C)C)NC(=O)[C@@H](NC(=O)[C@@H](NC(=O)[C@H](CO)NC(=O)[C@H](CC(C)C)NC(=O)[C@H](CCSC)NC(=O)[C@@H](N)[C@@H](C)O)[C@@H](C)CC)[C@@H](C)CC)C(C)C)C(=O)O [3102.0409] (H-TMLSIILVI-OH) | 7.80
CC[C@H](C)[C@H](NC(=O)[C@@H](N)Cc1c[nH]cn1)C(=O)N[C@@H](Cc1ccc(O)cc1)C(=O)N[C@@H](Cc1ccccc1)C(=O)N[C@H](C(=O)N[C@@H](CO)C(=O)N[C@@H](CC(C)C)C(=O)N[C@@H](CC(C)C)C(=O)N[C@@H](CC(C)C)C(=O)O)C(C)C [3102.0380] (H-HIYFVSLLL-OH) | 7.82
CC[C@H](C)[C@H](NC(=O)[C@@H](N)CO)C(=O)N[C@@H](Cc1ccc(O)cc1)C(=O)N[C@@H](CCCNC(=N)N)C(=O)N[C@@H](CCSC)C(=O)N[C@@H](CO)C(=O)N[C@@H](Cc1ccc(O)cc1)C(=O)N[C@@H](CCC(N)=O)C(=O)N[C@@H](Cc1ccccc1)C(=O)O [3102.0425] (H-SIYRMSYQF-OH) | 9.10
CC[C@H](C)[C@H](NC(=O)[C@@H](N)CCCCN)C(=O)N[C@@H](CC(N)=O)C(=O)N[C@@H](CC(N)=O)C(=O)N[C@@H](Cc1ccccc1)C(=O)N[C@@H](C)C(=O)N[C@@H](CC(N)=O)C(=O)N[C@@H](CCC(=O)O)C(=O)N[C@@H](Cc1ccccc1)C(=O)O [3102.0456] (H-KINNFANEF-OH) | 8.68
CC[C@H](C)[C@H](NC(=O)[C@@H](NC(=O)[C@@H](NC(=O)[C@@H]1CCCN1C(=O)[C@H](CCCNC(=N)N)NC(=O)[C@H](Cc1ccccc1)NC(=O)[C@H](Cc1ccccc1)NC(=O)[C@@H](NC(=O)[C@@H](N)CCCCN)[C@@H](C)CC)[C@@H](C)O)[C@@H](C)O)C(=O)O [3102.0470] (H-KIFFRPTTI-OH) | 8.96

Q: Name the recorded pIC50 for CC[C@H](C)[C@H](NC(=O)[C@H](CC(C)C)NC(=O)[C@H](C)NC(=O)[C@@H](NC(=O)[C@H](C)N)[C@@H](C)O)C(=O)N[C@@H](CC(C)C)C(=O)N[C@H](C(=O)N[C@@H](CO)C(=O)N[C@@H](Cc1ccccc1)C(=O)O)C(C)C [3102.0327] (H-ATALILVSF-OH) .
A: 8.85

Q: Param item: CC[C@H](C)[C@H](NC(=O)[C@@H](NC(=O)[C@@H](N)CCCCN)[C@@H](C)O)C(=O)N[C@@H](CC(N)=O)C(=O)N[C@@H](Cc1ccc(O)cc1)C(=O)N[C@@H](CO)C(=O)N[C@@H](Cc1ccccc1)C(=O)N[C@@H](Cc1ccccc1)C(=O)N[C@@H](CC(C)C)C(=O)O [3102.0472] (H-KTINYSFFL-OH)
A: 9.00

---

Biological target: HLA A*3001 (Homo sapiens, UniProt P04439, D140H/D185E/E176W/F33S/G80R/H175R/K168Q/R138E/R41S)
Experiment: biochemical
Where a SMILES comes first, the peptide text is derived from it.
OBSERVATION TYPE: IC50 (nM)
Supply the numeric figure in nM, leaving out any unit text.

Example cases with answers are listed next.
MOLECULE | IC50 [nM]
CC[C@H](C)[C@H](N)C(=O)N[C@H](C(=O)N[C@@H](CC(C)C)C(=O)N[C@H](C(=O)N[C@@H](CC(N)=O)C(=O)N[C@H](C(=O)N[C@H](C(=O)N[C@@H](CC(N)=O)C(=O)N[C@H](C(=O)O)[C@@H](C)CC)C(C)C)C(C)C)[C@@H](C)O)[C@@H](C)O [3102.0320] (H-ITLTNVVNI-OH) | 35
CC[C@H](C)[C@H](NC(=O)[C@@H](NC(=O)[C@@H](NC(=O)[C@H](CCCCN)NC(=O)[C@H](C)NC(=O)[C@@H](N)CCCCN)[C@@H](C)O)[C@@H](C)O)C(=O)N[C@@H](CO)C(=O)N[C@@H](CC(N)=O)C(=O)N[C@@H](Cc1ccc(O)cc1)C(=O)O [3102.0241] (H-KAKTTISNY-OH) | 24
CC[C@H](C)[C@H](NC(=O)[C@@H](N)CCCNC(=N)N)C(=O)N[C@@H](CCCNC(=N)N)C(=O)N[C@@H](CCC(N)=O)C(=O)N[C@@H](CCC(N)=O)C(=O)N[C@@H](CC(C)C)C(=O)N1CCC[C@H]1C(=O)N[C@@H](CC(C)C)C(=O)N[C@@H](Cc1ccc(O)cc1)C(=O)O [3102.0107] (H-RIRQQLPLY-OH) | 13

Q: Name the recorded IC50 for CC[C@H](C)[C@H](NC(=O)[C@H](C)NC(=O)[C@H](Cc1ccc(O)cc1)NC(=O)[C@H](CCCCN)NC(=O)[C@H](CCCCN)NC(=O)[C@H](CCCCN)NC(=O)[C@@H](NC(=O)[C@@H](N)CCCCN)C(C)C)C(=O)NCC(=O)O [3102.0280] (H-KVKKKYAIG-OH) .
A: 1.6
